experiment: Negative allosteric modulation of GluN1a/GluN2A receptor (unknown origin) expressed in Xenopus laevis oocytes assessed as inhibition of (S)-glutamate/glycine-induced channel current at 500 nM at -70 mV holding potential by two electrode voltage clamp based electrophysiology assay relative to control TCN-201; assay type: cell-based; settings: Homo sapiens
Property Measured: Ratio

{"columns": ["Smiles Data", "Ratio"],
 "data": [
  ["O=C(NNC(=O)c1ccncn1)c1ccc(CNS(=O)(=O)c2ccc(F)c(Cl)c2)cc1", 0.92],
  ["O=C(NNC(=O)c1c[nH]c2ccccc12)c1ccc(CNS(=O)(=O)c2ccc(F)c(Cl)c2)cc1", 1.33],
  ["O=C(NNC(=O)N1CCOCC1)c1ccc(CNS(=O)(=O)c2ccc(F)c(Cl)c2)cc1", 0.52]
]}

(I) O=S(=O)(NCc1ccc(-c2nnc(-c3ccccc3)o2)cc1)c1ccc(F)c(Cl)c1
(II) O=C(NNC(=O)c1cc2ccccc2[nH]1)c1ccc(CNS(=O)(=O)c2ccc(F)c(Cl)c2)cc1
(III) O=C(NNC(=O)c1cc2ccccc2s1)c1ccc(CNS(=O)(=O)c2ccc(F)c(Cl)c2)cc1
Would you mind ranking these molecules by ascending Ratio? Please express your ranking as an ordered list of the labels.
I, III, II
(I: 0.31, III: 0.58, II: 1.28)

(I) O=C(O)CCC(=O)NNC(=O)c1ccc(CNS(=O)(=O)c2ccc(F)c(Cl)c2)cc1
(II) O=C(NNC(=O)c1ccc[nH]1)c1ccc(CNS(=O)(=O)c2ccc(F)c(Cl)c2)cc1
Between the entries labelled I and II , which has a larger Ratio value on record? # answer = label of selected item
II
(II: 1.2, I: 0.3)

----------
experiment: Negative allosteric modulation of GluN1a/GluN2A receptor (unknown origin) expressed in Xenopus laevis oocytes assessed as inhibition of (S)-glutamate/glycine-induced channel current at 500 nM at -70 mV holding potential by two electrode voltage clamp based electrophysiology assay relative to control TCN-201; assay type: cell-based; conditions: Homo sapiens
Property Measured: Ratio

{"columns": ["Smiles Data", "Ratio"],
 "data": [
  ["O=C(NNCc1ccccc1)c1ccc(CNS(=O)(=O)c2ccc(F)c(Cl)c2)cc1", 0.73],
  ["O=C(NNS(=O)(=O)c1ccccc1)c1ccc(CNS(=O)(=O)c2ccc(F)c(Cl)c2)cc1", 0.58]
]}

(a) O=C(NNC(=O)c1cccs1)c1ccc(CNS(=O)(=O)c2ccc(F)c(Cl)c2)cc1
(b) O=C(Cc1ccccc1)NNC(=O)c1ccc(CNS(=O)(=O)c2ccc(F)c(Cl)c2)cc1
(c) O=C(NNC(=O)c1ccc2ccccc2c1)c1ccc(CNS(=O)(=O)c2ccc(F)c(Cl)c2)cc1
Would you mind ranking these molecules by ascending Ratio? Please express your ranking as an ordered list of the labels.
c, b, a
(c: 0.44, b: 0.64, a: 1.35)
